Recorded values, source ChEMBL document CHEMBL1132785.

Here we list compounds with their recorded Ki when tested on Trypanothione reductase (Trypanosoma cruzi, UniProt P28593).
Sequence (P28593 whole entry): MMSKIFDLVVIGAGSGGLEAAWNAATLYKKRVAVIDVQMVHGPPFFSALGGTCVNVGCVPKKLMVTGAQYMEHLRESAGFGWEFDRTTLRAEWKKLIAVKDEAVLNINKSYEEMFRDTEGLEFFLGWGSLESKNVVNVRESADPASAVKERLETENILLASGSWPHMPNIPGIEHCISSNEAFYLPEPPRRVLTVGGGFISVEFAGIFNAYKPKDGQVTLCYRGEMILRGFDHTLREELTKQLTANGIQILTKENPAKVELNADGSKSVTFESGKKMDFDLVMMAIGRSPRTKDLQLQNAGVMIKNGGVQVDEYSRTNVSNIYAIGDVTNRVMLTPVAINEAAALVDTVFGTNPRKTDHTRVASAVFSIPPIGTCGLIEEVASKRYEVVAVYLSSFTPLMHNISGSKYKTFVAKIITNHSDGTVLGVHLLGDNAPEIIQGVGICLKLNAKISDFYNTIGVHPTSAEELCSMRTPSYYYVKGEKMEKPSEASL
Remember to put the unit after the number in your answer.

Find Ki (Trypanothione reductase (Trypanosoma cruzi, UniProt P28593)) for the entry O=C(Cc1c[nH]c2ccccc12)NCCCNCCCCNCCCNC(=O)Cc1c[nH]c2ccccc12
390 nM

Same for O=C(NCCCNCCCCNCCCNC(=O)c1cnc2cc(C(F)(F)F)ccc2c1O)c1cnc2cc(C(F)(F)F)ccc2c1O
750 nM

Same for COc1ccc2[nH]cc(CC(=O)NCCCNCCCCNCCCNC(=O)Cc3c[nH]c4ccc(OC)cc34)c2c1
280 nM

Proceed to the following item.
Find Ki (Trypanothione reductase (Trypanosoma cruzi, UniProt P28593)) for the entry O=C(NCCCCNCCCNC(=O)c1cnc2cc(C(F)(F)F)ccc2c1O)c1cnc2cc(C(F)(F)F)ccc2c1O
850 nM
